- target or system: T1, BFL-1ΔC C55 (N-His6 BFL-1ΔC (1–151) bearing C4S/C19S mutations) (human, UniProt Q16548 1-151, C4S | C19S)
- T1 sequence (looked up): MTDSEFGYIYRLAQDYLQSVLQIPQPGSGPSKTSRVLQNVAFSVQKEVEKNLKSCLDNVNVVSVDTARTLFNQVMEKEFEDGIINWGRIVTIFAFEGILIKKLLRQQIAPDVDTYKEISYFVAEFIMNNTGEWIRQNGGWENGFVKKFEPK
- protocol: fluorescence polarisation
Where no end group is shown, it is not given here. The star is where a group is joined. FITC = O=C1OC2(c3ccc(O)cc3Oc3cc(O)ccc32)c2ccc(NC(=S)*)cc21
assay metric: Kd (nM)
Reply numerically in nM, unit not repeated.

Notebook: {FITC}-DIIRNIARHLAQVGDSMDRSI [FITC-BID BH3 peptide] , Kd read as 18.4
